system: luxN^L166A/H210N (Vibrio campbellii, UniProt A7MRY4, H210N/L166A)
conditionSet: AHLs added at 1 μM
assayMetric: light production

compound | assayMetric | obsValue
CCCCCC(=O)CC(=O)NC1CCOC1=O (centres unmarked) [3O-C8 HSL] | light production | produced maximal light
CCCC(=O)CC(=O)NC1CCOC1=O (centres unmarked) [3O-C6 HSL] | light production | detected
CCCCCCCC(=O)N[C@H]1CCOC1=O [C8 HSL] | light production | produced maximal light
CCCCCC(=O)N[C@H]1CCOC1=O [C6 HSL] | light production | detected

The reported measurements were obtained from paper PMC4275348.
